Provenance of the data: patent US9550811B2

target: HLA-B27 (Homo sapiens, UniProt P01889, D138H/D201E/E176V/E204Q/G107R/H137Y/K202T/N104T/N87E/Q56L/Q94K/R106L/R155S/R180L/S101D/S121N/S48T/Y140D/Y33H/Y91C); assay: REVEAL binding assay; conditions: score as percentage of the signal generated by the positive control peptide
# binning rule on REVEAL binding score, HLA-type B27: bucket A = under 1%, bucket B = from 1% up to 3%, bucket C = 3% and over

Below, 2 substances whose answers are already recorded.
> print(dat)
   substance  answer.label
1  DLMGYIPLV      bucket B
2  ARALAHGVR      bucket C

Query: Exam item: assign LMGYIPLVG to the correct category.
Reply: bucket B

Query: Categorize the following entry: IRNLGRVIE
Reply: bucket B

Query: Lab note: which band did IRVIAHGLR land in?
Reply: bucket C

Query: Category of VGGVYLLPR :
Reply: bucket A

Query: Form field 'band' for KVIDTLTCG
Reply: bucket A
